Assay: Chemical stability of compound in phosphate buffer assessed as half life at pH 2.21 by HPLC analysis
Assay type: physicochemical
measurement name: half-life (h)
Write the answer as a number in h, unit excluded.

Specify half-life for CC(C)Cc1ccc(C(C)C(=O)OCC(O)C2OC(=O)C(O)=C2O)cc1 (centres undefined) and stop.
40.1

Specify half-life for CC(C)Cc1ccc(C(C)C(=O)OCC(OC(=O)C(C)c2ccc(CC(C)C)cc2)C2OC(=O)C(O)=C2O)cc1 (centres undefined) and stop.
39.5

Specify half-life for CC(C)Cc1ccc(C(C)C(=O)OC(CO)C2OC(=O)C(O)=C2O)cc1 (centres undefined) and stop.
43

Specify half-life for C/C(=C(\CCOC(=O)C(C)c1ccc(CC(C)C)cc1)SSCc1ccccc1)N(C=O)CC(=O)OCC(OC(=O)C(C)c1ccc(CC(C)C)cc1)C1OC(=O)C(O)=C1O (centres undefined) and stop.
53.9

* * *

Test: Chemical stability of compound in phosphate buffer assessed as half life at pH 7.88 by HPLC analysis
Assay type: physicochemical
measurement name: half-life (h)
Write the answer as a number in h, unit excluded.

Specify half-life for CC(C)Cc1ccc(C(C)C(=O)OC(CO)C2OC(=O)C(O)=C2O)cc1 (centres undefined) and stop.
9.7

Specify half-life for CC(C)Cc1ccc(C(C)C(=O)OCC(OC(=O)C(C)c2ccc(CC(C)C)cc2)C2OC(=O)C(O)=C2O)cc1 (centres undefined) and stop.
8.1

Specify half-life for C/C(=C(\CCOC(=O)C(C)c1ccc(CC(C)C)cc1)SSCc1ccccc1)N(C=O)CC(=O)OCC(OC(=O)C(C)c1ccc(CC(C)C)cc1)C1OC(=O)C(O)=C1O (centres undefined) and stop.
10.1

Specify half-life for CC(C)Cc1ccc(C(C)C(=O)OCC(O)C2OC(=O)C(O)=C2O)cc1 (centres undefined) and stop.
8.2

* * *

Assay: Chemical stability of compound in phosphate buffer assessed as first order rate constant of disappearance of drug at pH 5.86 by HPLC analysis
Type: physicochemical
measurement name: K (×10⁻² /hr)
Write the answer as a number in ×10⁻² /hr, unit excluded.

Specify K for C/C(=C(\CCOC(=O)C(C)c1ccc(CC(C)C)cc1)SSCc1ccccc1)N(C=O)CC(=O)OCC(OC(=O)C(C)c1ccc(CC(C)C)cc1)C1OC(=O)C(O)=C1O (centres undefined) and stop.
2.89

Specify K for CC(C)Cc1ccc(C(C)C(=O)OCC(OC(=O)C(C)c2ccc(CC(C)C)cc2)C2OC(=O)C(O)=C2O)cc1 (centres undefined) and stop.
3.66

Specify K for CC(C)Cc1ccc(C(C)C(=O)OC(CO)C2OC(=O)C(O)=C2O)cc1 (centres undefined) and stop.
3.36

Specify K for CC(C)Cc1ccc(C(C)C(=O)OCC(O)C2OC(=O)C(O)=C2O)cc1 (centres undefined) and stop.
3.76

* * *

Test system: Brain
Test: Drug uptake in Kunming mouse brain assessed as concentration efficiency […] iv ibuprofen administered as single dose by HPLC analysis relative to ibuprofen
Format: ADME, organism-based
Details: in vivo
measurement name: Ratio
Form: value (number only, do not type unit).

Specify Ratio for CC(C)Cc1ccc(C(C)C(=O)OCC(O)C2OC(=O)C(O)=C2O)cc1 (centres undefined) and stop.
2.619

Specify Ratio for CC(C)Cc1ccc(C(C)C(=O)OC(CO)C2OC(=O)C(O)=C2O)cc1 (centres undefined) and stop.
4.194

Specify Ratio for C/C(=C(\CCOC(=O)C(C)c1ccc(CC(C)C)cc1)SSCc1ccccc1)N(C=O)CC(=O)OCC(OC(=O)C(C)c1ccc(CC(C)C)cc1)C1OC(=O)C(O)=C1O (centres undefined) and stop.
7.461

Specify Ratio for CC(C)Cc1ccc(C(C)C(=O)OCC(OC(=O)C(C)c2ccc(CC(C)C)cc2)C2OC(=O)C(O)=C2O)cc1 (centres undefined) and stop.
4.965

* * *

System: Brain
Test: AUC (0 to t) in Kunming mouse brain […] iv ibuprofen administered as single dose by HPLC analysis
Type: ADME, organism-based
Conditions: in vivo
Task for the reader: assign each of the following compounds its reported AUCt.
Write the answer as a number in µg·min/g, unit excluded.

Specify AUCt for CC(C)Cc1ccc(C(C)C(=O)OCC(O)C2OC(=O)C(O)=C2O)cc1 (centres undefined) and stop.
3767.9842

Specify AUCt for CC(C)Cc1ccc(C(C)C(=O)OCC(OC(=O)C(C)c2ccc(CC(C)C)cc2)C2OC(=O)C(O)=C2O)cc1 (centres undefined) and stop.
6526.7422

Specify AUCt for C/C(=C(\CCOC(=O)C(C)c1ccc(CC(C)C)cc1)SSCc1ccccc1)N(C=O)CC(=O)OCC(OC(=O)C(C)c1ccc(CC(C)C)cc1)C1OC(=O)C(O)=C1O (centres undefined) and stop.
7557.692

Specify AUCt for CC(C)Cc1ccc(C(C)C(=O)OC(CO)C2OC(=O)C(O)=C2O)cc1 (centres undefined) and stop.
4183.3895

* * *

Experiment: Metabolic stability in mouse brain assessed as compound half life by HPLC analysis
Assay type: ADME, tissue-based
Task for the reader: assign each of the following compounds its reported half-life.
Write the answer as a number in min, unit excluded.

Specify half-life for CC(C)Cc1ccc(C(C)C(=O)OCC(O)C2OC(=O)C(O)=C2O)cc1 (centres undefined) and stop.
20.1

Specify half-life for CC(C)Cc1ccc(C(C)C(=O)OCC(OC(=O)C(C)c2ccc(CC(C)C)cc2)C2OC(=O)C(O)=C2O)cc1 (centres undefined) and stop.
27.9

Specify half-life for CC(C)Cc1ccc(C(C)C(=O)OC(CO)C2OC(=O)C(O)=C2O)cc1 (centres undefined) and stop.
16.7

Specify half-life for C/C(=C(\CCOC(=O)C(C)c1ccc(CC(C)C)cc1)SSCc1ccccc1)N(C=O)CC(=O)OCC(OC(=O)C(C)c1ccc(CC(C)C)cc1)C1OC(=O)C(O)=C1O (centres undefined) and stop.
12.7

* * *

Test: Metabolic stability in mouse plasma assessed as first order rate constant of disappearance of drug by HPLC analysis
Format: ADME, cell-free
Task for the reader: assign each of the following compounds its reported k el.
Write the answer as a number in s⁻¹, unit excluded.

Specify k el for CC(C)Cc1ccc(C(C)C(=O)OCC(O)C2OC(=O)C(O)=C2O)cc1 (centres undefined) and stop.
0.000248

Specify k el for CC(C)Cc1ccc(C(C)C(=O)OCC(OC(=O)C(C)c2ccc(CC(C)C)cc2)C2OC(=O)C(O)=C2O)cc1 (centres undefined) and stop.
0.000262

Specify k el for CC(C)Cc1ccc(C(C)C(=O)OC(CO)C2OC(=O)C(O)=C2O)cc1 (centres undefined) and stop.
0.000225

Specify k el for C/C(=C(\CCOC(=O)C(C)c1ccc(CC(C)C)cc1)SSCc1ccccc1)N(C=O)CC(=O)OCC(OC(=O)C(C)c1ccc(CC(C)C)cc1)C1OC(=O)C(O)=C1O (centres undefined) and stop.
0.000307

* * *

Test: Tmax in Kunming mouse brain at 48 mmol/g, iv administered as single dose by HPLC analysis
Format: ADME, organism-based
measurement name: Tmax (min)
Write the answer as a number in min, unit excluded.

Specify Tmax for CC(C)Cc1ccc(C(C)C(=O)O)cc1 (stereo unspecified) [IBUPROFEN] and stop.
25

* * *

Experiment: Metabolic stability in mouse plasma assessed as compound half life by HPLC analysis
Format: ADME, cell-free
measurement name: half-life

Specify half-life for CC(C)Cc1ccc(C(C)C(=O)OC(CO)C2OC(=O)C(O)=C2O)cc1 (centres undefined) and stop.
51.4 min

Specify half-life for C/C(=C(\CCOC(=O)C(C)c1ccc(CC(C)C)cc1)SSCc1ccccc1)N(C=O)CC(=O)OCC(OC(=O)C(C)c1ccc(CC(C)C)cc1)C1OC(=O)C(O)=C1O (centres undefined) and stop.
27.8 min

Specify half-life for CC(C)Cc1ccc(C(C)C(=O)OCC(O)C2OC(=O)C(O)=C2O)cc1 (centres undefined) and stop.
46.6 min

Specify half-life for CC(C)Cc1ccc(C(C)C(=O)OCC(OC(=O)C(C)c2ccc(CC(C)C)cc2)C2OC(=O)C(O)=C2O)cc1 (centres undefined) and stop.
44.2 min

* * *

Task for the reader: assign each of the following compounds its reported K.
Test: Chemical stability of compound in phosphate buffer assessed as first order rate constant of disappearance of drug at pH 2.21 by HPLC analysis
Format: physicochemical
Write the answer as a number in ×10⁻² /hr, unit excluded.

Specify K for CC(C)Cc1ccc(C(C)C(=O)OCC(OC(=O)C(C)c2ccc(CC(C)C)cc2)C2OC(=O)C(O)=C2O)cc1 (centres undefined) and stop.
1.76

Specify K for CC(C)Cc1ccc(C(C)C(=O)OC(CO)C2OC(=O)C(O)=C2O)cc1 (centres undefined) and stop.
1.61

Specify K for CC(C)Cc1ccc(C(C)C(=O)OCC(O)C2OC(=O)C(O)=C2O)cc1 (centres undefined) and stop.
1.73

Specify K for C/C(=C(\CCOC(=O)C(C)c1ccc(CC(C)C)cc1)SSCc1ccccc1)N(C=O)CC(=O)OCC(OC(=O)C(C)c1ccc(CC(C)C)cc1)C1OC(=O)C(O)=C1O (centres undefined) and stop.
1.29
